Test system: CCRF-CEM leukemia
Assay: NCI tumour cell line growth inhibition, 48 h; in the data active = GI50 below about 0.43 µM; inactive = the rest
Lab note: assign the record to one of label 1 (active), label 0 (inactive)

These recorded examples may help you get a feel for the data.
COMPOUND	STUDY TARGET	CLASS LABEL
COC(=O)/C=C/c1cc(OC(C)=O)c2c(c1)[C@@H](C(=O)OC)[C@H](c1ccc(OC(C)=O)c(OC(C)=O)c1)O2	CCRF-CEM leukemia	label 1
Cc1nnc2ccnn2c1C	CCRF-CEM leukemia	label 0
Cc1ccc(NC2=C3CCCCC3OC2=O)cc1 (configuration not stated)	CCRF-CEM leukemia	label 0
CC(C)(C)[Si](C)(C)OC1[C@@H](O[Si](C)(C)C(C)(C)C)[C@@H](CNC(=O)NC(=O)C(F)(F)F)O[C@H]1n1cnc2c(NC(=O)Nc3ccccc3)ncnc21 (some centres not stated)	CCRF-CEM leukemia	label 0
NC(=S)N/N=C\c1nccc2c(C(F)(F)F)cccc12	CCRF-CEM leukemia	label 1
Cc1cc2c(cc1C)[n+](=O)c(C(=O)c1ccccc1)c(C(F)F)n2[O-]	CCRF-CEM leukemia	label 0

Okay, now this compound:
Just curious, what result did COc1ccc(C(c2cc(OC)c(OC)c(OC)c2)n2cncn2)cc1O (configuration not stated) get here?
label 1
